protocol_notes: Toxicity liver stage against HepG2, at 10uM
Format: cell-based
Parameters: test concentration 10 uM, cell line HepG2-A16-CD81EGFP
conditions: human, HepG2-A16-CD81EGFP cells; read-out: INHIBITION
parameter: cytotoxicity at 10 µM (%)

> print(dat)
                                    compound              parameter  value.reported
 1    CCN1CCN(C(=O)COCc2nc(-c3ccncc3)no2)CC1  cytotoxicity at 10 µM           -8.72
 2  CC(C)Oc1cc(N2CC[C@H](CO)[C@@H](O)C2)nc(N)n1  cytotoxicity at 10 µM            2.41
 3  Cc1cnn(CC2CCCN2C(=O)c2cccc(S(C)(=O)=O)c2)c1 (stereo not drawn)  cytotoxicity at 10 µM           -10.3
 4                 CN(Cc1ccncc1)c1cncc(Br)c1  cytotoxicity at 10 µM            2.71
 5  CCN(C)C[C@@H]1CN(Cc2cnc3c(S(C)(=O)=O)cnn3c2)C[C@@H]1CO  cytotoxicity at 10 µM           -4.99
 6  COc1ccc(CN2CCN(C(C)=O)CC3(CC(=O)N(C)C3)C2)cc1 (stereo not drawn)  cytotoxicity at 10 µM            9.74
 7  COc1ccc(CN2CCc3c(nc(-c4ccccn4)[nH]c3=O)C2)cc1  cytotoxicity at 10 µM           -15.9
 8  Cc1cncc(C(=O)N2CCNCC2C(=O)NCc2ccncc2)c1 (stereo not drawn)  cytotoxicity at 10 µM              -4
 9  Cc1ccsc1C(=O)N1CC[C@@H](N(C)C)[C@@H]1Cc1cnn(C)c1  cytotoxicity at 10 µM           -77.6
10   O=c1[nH]c2cn(-c3ccc(Br)cc3)c(=O)n2[nH]1  cytotoxicity at 10 µM           -5.51
11  c1cnnc(N2CCCC2CNc2ncnc3ccsc23)c1 (stereo not drawn)  cytotoxicity at 10 µM           -8.87
12      Cc1cccc(-n2nc(CC(C)C)nc2CCCC(N)=O)c1  cytotoxicity at 10 µM             3.4
13   Cc1ccc(S(=O)(=O)Nc2cnn(C3CCOCC3)c2)cc1C  cytotoxicity at 10 µM            13.5
14  CNc1nccnc1C1CN(C(=O)c2c[nH]cn2)CCO1 (stereo not drawn)  cytotoxicity at 10 µM             3.4
15             COCCN1CC(=O)N(C(C)C)C(C)(C)C1  cytotoxicity at 10 µM            1.31
16               Cc1ccc(-c2cc(C(=O)O)sn2)cc1  cytotoxicity at 10 µM             2.2
17  COc1c(CNC2CCc3cc(C)ccc32)c(C)nn1C (stereo not drawn)  cytotoxicity at 10 µM         -0.0225
18  CCc1c(C)nn(CCNC(=O)C2CCCN(C(=O)N(C)C)C2)c1C (stereo not drawn)  cytotoxicity at 10 µM           -4.42
19  Cc1ccc([C@@H]2CN(C(=O)c3ccc[nH]3)C[C@H]2NC(=O)C2CC2)cc1  cytotoxicity at 10 µM           -21.5
20  CCC(CC)n1nc(C)cc1NC(=O)C1CCCO1 (stereo not drawn)  cytotoxicity at 10 µM          -0.951
21  CCC(=O)N1CCC2(CC1)CC(CC(=O)N(C)C)c1ccc(F)cc12 (stereo not drawn)  cytotoxicity at 10 µM            -101
22       COc1ccc(-c2nnc(CN3CCNC(=O)C3)o2)cc1  cytotoxicity at 10 µM           -2.27
23   O=C(NCCN1CCOCC1)c1cc(-c2ccccc2Cl)[nH]n1  cytotoxicity at 10 µM           -4.02
24  Cc1cc(CS(=O)(=O)C(C)c2ccc(F)cc2)on1 (stereo not drawn)  cytotoxicity at 10 µM         -0.0986
25  Cc1nc(CNC(=O)NCC(O)c2ccc(F)c(F)c2)cs1 (stereo not drawn)  cytotoxicity at 10 µM           -3.88
26           O=C(NCc1cccnc1)Nc1ccn(CC(F)F)n1  cytotoxicity at 10 µM            1.68
27  CC1CCCN(CCNC(=O)c2ccn(-c3ccc(F)cc3)n2)C1 (stereo not drawn)  cytotoxicity at 10 µM          -0.734
28    COc1cccc(N2CCN(Cc3ccc4occc4c3)CC2=O)c1  cytotoxicity at 10 µM              24
29        CS(=O)(=O)c1nccn1Cc1ccc(C(N)=O)cc1  cytotoxicity at 10 µM            6.77
30     NC(=O)CCSc1n[nH]c(-c2ccc3c(c2)CCC3)n1  cytotoxicity at 10 µM          -0.302
31  Cc1c(CN2CCCC(C(=O)c3ccccc3)C2)cc(C#N)n1C (stereo not drawn)  cytotoxicity at 10 µM           -6.63
32  CC(C)NC(=O)N1CCn2c(nnc2C2CCCN2)C1 (stereo not drawn)  cytotoxicity at 10 µM           -1.32
33       Cc1nc(N2CCCC2)nc2c1CCN(Cc1ccoc1)CC2  cytotoxicity at 10 µM            -134
34  CC(C)c1cc2c(s1)NC(c1ccccn1)NC2=O (stereo not drawn)  cytotoxicity at 10 µM          -0.378
35  Cc1nc(C2CCN(C)CC2)cc(N2CCOc3ccc(Cl)cc3C2)n1  cytotoxicity at 10 µM           -5.12
36   Oc1ncccc1-c1nc(-c2cccc(CN3CCOCC3)c2)no1  cytotoxicity at 10 µM           -11.8
37  CCCn1ncnc1C(C)NC(=O)C1CCN(CC(N)=O)CC1 (stereo not drawn)  cytotoxicity at 10 µM            -140
38         CN(CCCOc1ccccc1Cl)C(=O)CN1CCNC1=O  cytotoxicity at 10 µM            -0.2
39  O=C(Cc1cccnc1)N1CCCC(n2cncn2)C1 (stereo not drawn)  cytotoxicity at 10 µM           -13.1
40  CS(=O)(=O)N[C@H]1CN(C(=O)CCc2ccco2)C[C@@H]1C1CC1  cytotoxicity at 10 µM             2.7
41      Cc1noc(C2CCN(C(=O)c3c(C)noc3C)CC2)n1  cytotoxicity at 10 µM            5.65
42                   CSCCCNc1ncnc2cccc(F)c12  cytotoxicity at 10 µM           0.721
43  Cc1cc(CNC(=O)NC(C)c2ccncc2)no1 (stereo not drawn)  cytotoxicity at 10 µM           -13.5
44  CN(C)C1Cc2ccccc2N(S(=O)(=O)c2ccc(C#N)cc2)C1 (stereo not drawn)  cytotoxicity at 10 µM            2.91
45  c1cnn(CCCO[C@@H]2CC[C@H]3[C@H]2OCCN3CC2CCOCC2)c1  cytotoxicity at 10 µM            7.77
46        CCC(CC)NC(=O)NCc1ccnc(-n2ccnc2C)c1  cytotoxicity at 10 µM           -1.21
47    O=C(c1cc(F)ccc1Br)N1CCN(C(=O)C2CC2)CC1  cytotoxicity at 10 µM             4.9
48  Clc1cnccc1N1CCCC2(CCCOC2)C1 (stereo not drawn)  cytotoxicity at 10 µM           -2.35

---

Entries and their cytotoxicity at 10 µM
protocol_notes: Toxicity liver stage against HepG2, at 10uM
Format: cell-based
Set-up: test concentration 10 uM, cell line HepG2-A16-CD81EGFP
conditions: human, HepG2-A16-CD81EGFP cells; read-out: INHIBITION
parameter: cytotoxicity at 10 µM (%)

> print(dat)
                                   compound              parameter  value.reported
1  Cc1nc(CN(C)C(=O)CN(C)C)nc2c1CCC(=O)N2CCC(C)C  cytotoxicity at 10 µM           -10.5
2  Cc1ccc(-c2nn(-c3cccc(F)c3)cc2CN(C)CCO)o1  cytotoxicity at 10 µM            11.6
3  CC1CCN(C[C@H]2CN3CC[C@H]2C[C@@H]3CNC(=O)c2ccco2)CC1  cytotoxicity at 10 µM           -1.55
4  CN(CCc1ccccc1)c1cnn(CC2COCCO2)c(=O)c1 (stereo unspecified)  cytotoxicity at 10 µM           -10.3
5  NC(=O)c1cnc2n1CCN(C(=O)c1ccc(-c3cc[nH]n3)cc1)C2  cytotoxicity at 10 µM           -2.79
6  Cc1ccc(CN2C(=O)CCC2C(=O)Nc2cnn(C)c2)o1 (stereo unspecified)  cytotoxicity at 10 µM           -3.72
